- experimental protocol: Inhibition of Klebsiella pneumoniae KPC2 using cephalothin as reporter substrate incubated for 300 secs by spectrophotometric assay
Lab note: compare Ki with 3 µM, writing Met if less and Not met if equal or more.

Below are worked cases with known answers.
- molecule: "O=C(O)c1cccc2cc(B(O)O)sc12"
  category label: "Not met"
- molecule: "NCc1ccc2sc(B(O)O)cc2c1"
  category label: "Not met"
- molecule: "CC(C)(C)OC(=O)c1cccc2cc(B(O)O)sc12"
  category label: "Not met"
- molecule: "OB(O)c1cc2cc(CBr)ccc2s1"
  category label: "Met"

Now, please, on to the next compound.
Problem: Does this compound meet the criterion Ki < 3 µM? CC(C)(C)OC(=O)Nc1cccc2cc(B(O)O)sc12
Solution: Met
